target: Sphingosine 1-phosphate receptor 1 (Homo sapiens); experiment: Agonist activity at human recombinant S1PR1 expressed in CHO cell membranes assessed as [35S]GTPgammaS binding preincubated for 30 mins followed by [35S]GTPgammaS addition measured after 1 hr by topcount analysis
Sequence (P21453 whole entry): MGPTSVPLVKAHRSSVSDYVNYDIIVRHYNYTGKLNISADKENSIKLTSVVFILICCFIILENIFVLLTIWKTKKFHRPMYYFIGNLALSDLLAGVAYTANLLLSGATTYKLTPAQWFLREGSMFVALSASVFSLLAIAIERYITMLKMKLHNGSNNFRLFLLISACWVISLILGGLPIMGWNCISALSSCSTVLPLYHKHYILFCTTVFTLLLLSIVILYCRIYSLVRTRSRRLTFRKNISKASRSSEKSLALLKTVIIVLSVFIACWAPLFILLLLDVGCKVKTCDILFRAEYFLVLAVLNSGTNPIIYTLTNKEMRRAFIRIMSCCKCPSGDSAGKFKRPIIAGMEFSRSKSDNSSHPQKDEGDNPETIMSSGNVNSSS
value-type: pEC50
Hey, just a heads up that pEC50 is the negative log base 10 of the concentration in molar.

{"entry-smiles": "CCc1cc(-c2noc(-c3cc(C)c(CNC)s3)n2)cc(C)c1OC[C@@H](O)CNC(=O)CO", "experimental-result": 7.85}
{"entry-smiles": "CCc1cc(-c2noc(-c3cc(C)cc(CN(C)CC(C)C)c3)n2)cc(C)c1OC[C@@H](O)CNC(=O)CO", "experimental-result": 8.68}

Q. For Sphingosine 1-phosphate receptor 1 (Homo sapiens), provide pEC50 of CCc1cc(-c2noc(-c3ccc(C)c(CN(C)CC)c3)n2)cc(C)c1OC[C@@H](O)CNC(=O)CO please.
A. 6.55

Q. For Sphingosine 1-phosphate receptor 1 (Homo sapiens), provide pEC50 of CCc1cc(-c2noc(-c3ccc(CN(C)CC)s3)n2)cc(C)c1OC[C@@H](O)CNC(=O)CO please.
A. 8.17

----------
target: UniProt:P21453; test: Agonist activity at human recombinant S1PR1 expressed in CHO cell membranes assessed as [35S]GTPgammaS binding preincubated for 30 mins followed by [35S]GTPgammaS addition measured after 1 hr by topcount analysis
Grouping key: EC50. Bins: low: < 0.005 µM; medium: ≥ 0.005 µM and < 0.2 µM; high: ≥ 0.2 µM

{"entry-smiles": "CCc1cc(-c2noc(-c3ccc(CNCC(C)C)c(C)c3)n2)cc(C)c1OC[C@@H](O)CNC(=O)CO", "answer-label": "high"}
{"entry-smiles": "CCc1cc(-c2noc(-c3cc(C)c(CN(C)CC)s3)n2)cc(C)c1OC[C@@H](O)CNC(=O)CO", "answer-label": "low"}
{"entry-smiles": "CCCN(C)Cc1sc(-c2nc(-c3cc(C)c(OC[C@@H](O)CNC(=O)CO)c(CC)c3)no2)c(C)c1C", "answer-label": "medium"}
{"entry-smiles": "CCc1cc(-c2noc(-c3ccc(CN(C)C)s3)n2)cc(C)c1OC[C@@H](O)CNC(=O)CO", "answer-label": "medium"}

Q. // return the class label for CCc1cc(-c2noc(-c3ccc(C)c(CN(C)CC(C)C)c3)n2)cc(C)c1OC[C@@H](O)CNC(=O)CO
A. medium

Q. // return the class label for CCCCN(C)Cc1cc(C)cc(-c2nc(-c3cc(C)c(OC[C@@H](O)CNC(=O)CO)c(CC)c3)no2)c1
A. low

Q. // return the class label for CCc1cc(-c2noc(-c3cc(CN(C)CC(C)C)ccc3C)n2)cc(C)c1OC[C@@H](O)CNC(=O)CO
A. high

Q. // return the class label for CCCc1cc(CN(C)CC(C)C)cc(-c2nc(-c3cc(C)c(OC[C@@H](O)CNC(=O)CO)c(CC)c3)no2)c1
A. low

----------
assay: Ratio of total drug level in brain to plasma in Wistar rat at 10 mg/kg administered as single dose through oral gavage after 24 hrs; type: ADME, organism-based; details: read-out: BPR
value-type: Kp at 24 h
Reply with the value as a number alone.

Q. // query Kp at 24 h value for entry CCc1cc(-c2noc(-c3cc(C)c(CN(C)CC(C)C)s3)n2)cc(C)c1OC[C@@H](O)CNC(=O)CO
A. 11.5
